pIC50: −log10 of the molar value.
pIC50 for cGMP-dependent protein kinase (Eimeria tenella, UniProt Q8MMZ8), merged from several publications.
VALUE_KIND: pIC50

Observe how each entry below is paired with its result.
> print(dat)
                  compound.structure.string  value.kind  value.observed
1  CN1CCC(c2cc(-c3ccncc3)c(-c3ccc(OC(F)(F)F)cc3)[nH]2)CC1       pIC50            7.34
2  CN(C)Cc1ccn2c(-c3ccnc(NCc4ccc(F)c(F)c4)n3)c(-c3ccc(F)cc3)nc2c1       pIC50           10.22
3  CCOC(=O)c1cc(-c2ccncc2)c(-c2ccc(F)cc2)[nH]1       pIC50            6.37

1. CN(C)Cc1ccn2c(-c3ccnc(NCc4cccc(Cl)c4)n3)c(-c3ccc(F)cc3)nc2c1
2. CN1CCC(c2cc(-c3ccncc3)c(-c3ccc(C(F)(F)F)cc3)[nH]2)CC1
Hi, I'm comparing 1 with 2 and wondering which one has the bigger number for pIC50. Any idea? I would appreciate it if you answered with the label of your choice.
1
(1: 9.74, 2: 7.26)

A. CN(C)Cc1ccn2c(-c3ccnc(N)n3)c(-c3ccc(Cl)cc3)nc2c1
B. CN(C)Cc1ccn2c(-c3ccnc(NCc4cc(F)cc(F)c4)n3)c(-c3ccc(F)cc3)nc2c1
C. CCNc1nccc(-c2c(-c3ccc(F)cc3)nc3cc(CN(C)C)ccn23)n1
Returns the items ordered by pIC50, from maximum to minimum. Respond with the label ranking, as requested.
B, C, A
